# tested_system: wild type K-Ras (Homo sapiens, UniProt P01116)
# Construct: human K-Ras (wildtype, aa 1-169); 6xHis tag + TEV cleavage site (N, cleaved yes); made in house; host or cells: E. coli BL21(DE3)
# Sequence (P01116 1-169 isoform P01116-2): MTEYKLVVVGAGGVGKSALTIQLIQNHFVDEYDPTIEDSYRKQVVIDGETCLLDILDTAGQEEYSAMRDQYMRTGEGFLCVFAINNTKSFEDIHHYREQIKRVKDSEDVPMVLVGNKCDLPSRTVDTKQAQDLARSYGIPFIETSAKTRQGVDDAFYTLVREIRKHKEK
# procedure_details: Covalent modification of recombinant wild-type K-Ras by whole-protein mass spectrometry
# Type: binding
# test_parameters: 24-h incubation, 100 μM compound, 23° C., pH 7.5
quantity_name: % covalent modification of wild type K-Ras (%)

{"molecule": "CC1(c2cc(NCC(=O)N3CC[C@H]4C(=O)O[C@H]4C3)c(O)cc2Cl)CC1 [Compound 06-093]", "output_unit": "%", "numeric_result": 4.8}
{"molecule": "O=C1OCC12CCN(c1nc(OCC34CCCN3CCC4)nc3c(F)c(-c4cccc5cccc(Cl)c45)ncc13)CC2 [Compound 13-037]", "output_unit": "%", "numeric_result": 0}

A. O=C1O[C@H]2CN(c3nc(OCC45CCCN4CCC5)nc4c3CCN(c3cccc5cccc(Cl)c35)C4)CC[C@@H]12 [4′]
B. O=C1OCC12CCN(c1nc(OCC34CCCN3CCC4)nc3c1CCN(c1cccc4cccc(Cl)c14)C3)CC2 [Compound 13-018]
### Prompt Please let me know which one, A or B , has a lower measured % covalent modification of wild type K-Ras value. Your answer should be the label attached to the chosen record.
### Response A
(A: 0%, B: 85.8%)
